System: glycogen synthase kinase-3 (GSK3A per assay name; protocol says GSK3B)
Experiment description: GSK3 binders on small-molecule microarrays, primary screen, biochemical, small-molecule microarray, 635 nm fluorescence, GSK3A (AID 1103); note: the record names both GSK3A and GSK3B
Experimental setup: small-molecule microarray binding, fluorescence 635 nm; higher = more signal
Quantity: composite z-score
Please give the numeric answer without any surrounding text.

So what does the record say about composite z-score for "Cc1ccc(S[C@]2(C(=O)NCC(C)C)CC(=O)N(C(C)C)[C@@H]2c2ccc(CO)cc2)cc1" ? -0.771

So what does the record say about composite z-score for "C=C(COC)C(=O)CC[C@@H](OC(=O)c1ccccc1-c1ccccc1C(=O)O)c1cccc(OCCO)c1" ? -0.116

So what does the record say about composite z-score for CC(C)CCC[C@@H](C)[C@H]1CC[C@@]2(C)C3=C(CC[C@]12C)[C@@]1(C)CC[C@H](OC(=O)CCl)C(C)(C)C1CC3 (stereo partly drawn) ? 0.684

###

Please provide measured z-score for the entries that follow.
Experiment description: basal RPMI8226 mitochondrial membrane potential changes, profiling panel, cell-based, JC-1 fluorescence, 24 h, 100 nL compound (AID 1169); note: test concentration not given here
Experimental setup: RPMI8226 myeloma, JC-1 mitochondrial potential fluorescence, higher = more signal
Please give the numeric answer without any surrounding text.

So what does the record say about z-score for "[N-]=[N+]=NCc1ccccc1C[C@@]1(C(=O)NCc2ccccc2)N=C(c2ccc(OCCCO)cc2)O[C@@H]1c1ccccc1" ? -0.876

So what does the record say about z-score for "C=CC[C@@]1(C(=O)NCc2ccccc2)N=C(c2ccc(OCCCO)cc2)O[C@@H]1c1ccccc1" ? -1.23

So what does the record say about z-score for "C[N+](C)(C)CCCC[C@@H]1NC(=O)[C@@H]2C[C@H](C(=O)NCCCCCNC(=O)CS)[C@H](c3ccc(O)cc3)N2C1=O" ? 0.289

So what does the record say about z-score for "COc1ccc([Si](C)(C)[C@@H]2[C@@H](CC(=O)N3CCC[C@H]3CO)O[C@]3(C(=O)N(Cc4ccc(N5CCC5=O)cc4)c4ccccc43)[C@H]2C)cc1" ? -1.18

So what does the record say about z-score for "COc1ccc(C#Cc2ccc3c(c2)[C@]2(C(=O)N3)[C@H](c3ccc(O)cc3)N3[C@H](c4ccccc4)[C@H](c4ccccc4)OC(=O)[C@H]3[C@@H]2C(N)=O)cc1" ? -1.32

So what does the record say about z-score for NC(=O)N1C(=O)C2C(C1=O)C1C=C(c3ccc(CO)cc3)C2C(C2CC2)N1Cc1cc2c(cc1Br)OCO2 (stereo not given) ? -0.3

So what does the record say about z-score for "C=CC[C@@H](OC(=O)Nc1ccc(SC)cc1)c1ccc(OCCO)cc1" ? 0.561

So what does the record say about z-score for "COc1ccc(C(=O)Nc2cccc(CN3C(=O)[C@@]4(O[C@@H](CCO)[C@H]([Si](C)(C)c5ccc(OC)cc5)[C@H]4C)c4ccccc43)c2)cc1" ? -0.972

So what does the record say about z-score for "CC(C)CNC(=O)[C@@H]1c2ccccc2C(=O)N(Cc2ccc(OC(F)(F)F)cc2)[C@H]1c1ccc(CO)cc1" ? 0.417

So what does the record say about z-score for "CCOC(=O)C[C@H]1[C@H](OC(=O)c2ccc(-c3ccccc3)cc2)[C@@H](NC(=O)c2ccccc2)c2cc(OCCCO)ccc2N1C(=O)c1ccccc1" ? 0.709
